- Test Protocol: xn = mol fraction of the nth substance listed
- Details: 298.15 K; 100 kPa; x2 = 0.2
Experimental Endpoint: viscosity (mPa·s)

compound="CC(O)CO (centres undefined) + CC(C)CO" unit_spec=mPa·s reported_value=22.5
compound="CC(O)CO (centres undefined) + CCCCO" unit_spec=mPa·s reported_value=19.65
compound="CC(O)CO (centres undefined) + CC#N" unit_spec=mPa·s reported_value=16.9
compound="CC(O)CO (centres undefined) + CC(C)=O" unit_spec=mPa·s reported_value=11.54

----------
- Test Protocol: xn = mol fraction of the nth substance listed
- Details: 298.15 K; 101 kPa; x1 = 0.0767
Experimental Endpoint: viscosity (mPa·s)

molecule="NC1CCCCC1 + CC(C)(C)O" reported_value=4.039
molecule="NC1CCCCC1 + CC(C)CO" reported_value=3.274
molecule="NC1CCCCC1 + CCC(C)O" reported_value=2.804
molecule="NC1CCCCC1 + CCCCO" reported_value=2.558

----------
- Details: 298.15 K; 101 kPa
± gives the uncertainty stated by the source.
Experimental Endpoint: viscosity

test_smiles=Cc1ccccn1 experimental_endpoint=viscosity reported_value="0.792 ± 0.013 mPa·s"
test_smiles=ClC=C(Cl)Cl experimental_endpoint=viscosity reported_value="0.531 ± 0.005 mPa·s"
test_smiles=CCCCC(=O)[O-].CC[NH+](CC)CCO experimental_endpoint=viscosity reported_value="47.75 ± 0.81 mPa·s"
test_smiles=CCCCn1cc[n+](C)c1.COP(=O)([O-])OC experimental_endpoint=viscosity reported_value="608.9 ± 21 mPa·s"
test_smiles=CC(C)Br experimental_endpoint=viscosity reported_value="0.4981 ± 0.028 mPa·s"

----------
- Test Protocol: xn = mol fraction of the nth substance listed
- Details: 298.15 K; 101 kPa; x1 = 0.1574
Experimental Endpoint: viscosity (mPa·s)

molecule="NC1CCCCC1 + CCCCO" experimental_endpoint=viscosity unit_spec=mPa·s reported_value=2.555
molecule="NC1CCCCC1 + CC(C)(C)O" experimental_endpoint=viscosity unit_spec=mPa·s reported_value=3.722
molecule="NC1CCCCC1 + CCC(C)O" experimental_endpoint=viscosity unit_spec=mPa·s reported_value=2.619
molecule="NC1CCCCC1 + CC(C)CO" experimental_endpoint=viscosity unit_spec=mPa·s reported_value=3.183

----------
- Test Protocol: xn = mol fraction of the nth substance listed
- Details: 298.15 K; 101 kPa; x1 = 0.6355
Experimental Endpoint: viscosity (mPa·s)

compound="NC1CCCCC1 + CC(C)CO" reported_value=2.681
compound="NC1CCCCC1 + CCCCO" reported_value=2.379
compound="NC1CCCCC1 + CCC(C)O" reported_value=2.224
compound="NC1CCCCC1 + CC(C)(C)O" reported_value=2.519

----------
- Details: 308.15 K; 101 kPa
Overview of recorded viscosity for various compounds
Experimental Endpoint: viscosity (mPa·s)

test_smiles=CC(C)Br unit_spec=mPa·s reported_value=0.4708
test_smiles=CCCCn1cc[n+](C)c1.COP(=O)([O-])OC unit_spec=mPa·s reported_value=305.8
test_smiles=ClC=C(Cl)Cl unit_spec=mPa·s reported_value=0.489
test_smiles=CCCCC(=O)[O-].CC[NH+](CC)CCO unit_spec=mPa·s reported_value=29.31

----------
- Test Protocol: xn = mol fraction of the nth substance listed
- Details: 298.15 K; 101 kPa; x1 = 0.7493
Experimental Endpoint: viscosity (mPa·s)

compound="NC1CCCCC1 + CC(C)(C)O" reported_value=2.309
compound="NC1CCCCC1 + CCC(C)O" reported_value=2.148
compound="NC1CCCCC1 + CC(C)CO" reported_value=2.447
compound="NC1CCCCC1 + CCCCO" reported_value=2.248
